test system: A549; assay: NCI tumour cell line growth inhibition, 48 h
Activity calls are given as the source filed them. No stated cut-off is given here; in the data, active = GI50 up to about 1.1 µM and inactive = higher.
readout-kind: GI50

Solved entries (count: 5):
> print(dat)
                                   compound               result
1  O=C(CN1CCCCC1)N1CCc2c([nH]c3ccccc23)C1c1cccnc1 (stereo not given)  > 100 µM (inactive)
2  CCOC(=O)c1[nH]c2ccccc2c1C(=O)C[C@H](NC(=O)C(F)(F)F)C(=O)OC  > 100 µM (inactive)
3  CCOC(=O)/C=C(\C(=O)OCC)n1ccc(=O)n(Cc2cnnn2CCCCOC(C)=O)c1=O   19.9 µM (inactive)
4  O=c1c2ccccc2nc(Cc2nc(-c3ccc(Cl)cc3)cs2)n1-c1ccc(Cl)cc1   50.6 µM (inactive)
5  O=C(c1ccccc1)C1N=NN(Cc2ccccc2[N+](=O)[O-])C1C(=O)c1ccccc1 (stereo not given)   37.8 µM (inactive)

Q) Would you mind telling me what GI50 value was observed for O=C1NC2(CN3CCC2CC3)C(=O)N1CN(Cc1ccccc1)c1ccccc1 (stereo not given) ?
A) 81.1 µM (inactive)

Q) Can you look up the measured GI50 of CCOC(=O)C(NC(=O)c1cccc(Cl)c1)(Nc1ccc(S(=O)(=O)Nc2cc(C)on2)cc1)C(F)(F)F (stereo not given) for me?
A) > 100 µM (inactive)

Q) What value of GI50 has been recorded for this entry: COc1ccc(-c2cc(O)c3cc4c(cc3n2)OCO4)c(OC)c1
A) 41.8 µM (inactive)

Q) Can you share its GI50? I mean this compound: CO[C@@H](c1ccccc1)[C@H](O)[C@](O)(c1ccccc1)P(=O)(OC)OC
A) > 100 µM (inactive)

Q) Query (compound): Fc1cccc(C2ON=C(c3ccccc3)N2C23CC4CC(CC(C4)C2)C3)c1 (stereo not given) ; field requested: GI50
A) > 10 µM (inactive)

====

system: SK-MEL-28; experiment: NCI tumour cell line growth inhibition, 48 h
Activity calls are given as the source filed them. Rule as the data show it: active = GI50 up to about 1.1 µM and inactive = higher. Residues, ends and D or L forms follow the SMILES beside them. *: point of attachment. Boc = CC(C)(C)OC(=O)*
readout-kind: GI50

compound	study-target	GI50
O=C(CN1CCCCC1)N1CCc2c([nH]c3ccccc23)C1c1cccnc1 (centres undefined)	SK-MEL-28	> 100 µM (inactive)
COc1ccc(C2ON(c3cccc(C)n3)CC=C2C)cc1 (centres undefined)	SK-MEL-28	23.7 µM (inactive)
C[C@@H]1CC(=O)C[C@@H]2CC[C@H]3[C@@H]4CC[C@H](OC(=O)c5cccc6cc7ccccc7nc56)[C@H]4CC[C@@H]3[C@H]21	SK-MEL-28	28.6 µM (inactive)
CC(NC(=O)C(NC(=O)OC(C)(C)C)C(C)C)C(=O)N1CCCC1C(=O)NCC(=O)NC(C(=O)NCC(=O)O)C(C)C (centres undefined) (Boc-VAPGVG-OH; configuration not given here)	SK-MEL-28	> 100 µM (inactive)
FC(F)(F)c1ccc2c(c1)nc(Cc1ccc(Cl)c(Cl)c1)n2CC1CCCN2CCCCC12 (centres undefined)	SK-MEL-28	21.1 µM (inactive)
O=C(O)c1cc2c(cc1CC(Cc1ccc3c(c1)CCC3)C(=O)O)CCC2 (centres undefined)	SK-MEL-28	> 100 µM (inactive)

Continue with the compound presented below.
Q) Can you look up the measured GI50 of O=C1/C(=C/c2ccc(Cl)cc2)Oc2cc(O)ccc21 [6-HYDROXY-4'-CHLORO AURONE] for me?
A) 59.6 µM (inactive)

====

Form field: GI50 (one value per entry).
test system: CAKI-1; assay: NCI tumour cell line growth inhibition, 48 h
Activity calls are given as the source filed them. Cut-off read from the data, not from the text of the source: active = GI50 up to about 1.1 µM and inactive = higher. Residues, ends and D or L forms follow the SMILES beside them. *: point of attachment. Boc = CC(C)(C)OC(=O)*

compound	GI50
CC(=O)c1c2c(cc3c1CC1(Cc4cc5c(cc4C1=O)CCC5)C3)CCC2 (stereo not given)	17.3 µM (inactive)
Nc1nc(Cl)cc(NCC2(CO)CC(c3ccccc3)C2)n1 (stereo not given)	> 100 µM (inactive)
O=C1/C(=C/c2ccc(Cl)c(Cl)c2)CNC/C1=C\c1ccc(Cl)c(Cl)c1	4.09 µM (inactive)
COC(=O)C1=C(O)c2cc3c(cc2[C@H](c2cc(OC)c(OC)c(OC)c2)C1C(=O)OC)OCO3 (stereo not given in full)	25.2 µM (inactive)
CC(NC(=O)C(NC(=O)OC(C)(C)C)C(C)C)C(=O)N1CCCC1C(=O)NCC(=O)NC(C(=O)NCC(=O)O)C(C)C (stereo not given) (Boc-VAPGVG-OH; configuration not given here)	> 100 µM (inactive)

Q) Could you share what GI50 was measured for CN1C(=O)C(=CN(C)c2ccccc2)C(=O)N(C)C1=O , tested on CAKI-1?
A) 30.1 µM (inactive)

Q) Please state recorded GI50 (tested on CAKI-1) of O=[N+]([O-])/C(C(Cl)=C(Cl)Cl)=C(\NCc1ccccc1)Sc1ccccc1
A) 37.3 µM (inactive)

Q) // lookup GI50 | system=CAKI-1 | key= CO[C@H]1c2cccc3cccc(c23)[C@@H]1n1[nH]c(=O)n(C(C)(C)C)c1=O
A) > 100 µM (inactive)

Q) Request: GI50, test system CAKI-1, entry CCOC(=O)C(NC(=O)c1cccc(Cl)c1)(Nc1ccc(S(=O)(=O)Nc2cc(C)on2)cc1)C(F)(F)F (stereo not given)
A) > 100 µM (inactive)

Q) Please tell me: GI50 of CC(C)C(=O)Nc1cc(C(F)(F)F)ccc1[N+](=O)[O-] , system CAKI-1?
A) > 100 µM (inactive)

====

test system: UACC-257; assay: NCI tumour cell line growth inhibition, 48 h
Calls of active or inactive are those of the source. No stated cut-off is given here; in the data, active = GI50 up to about 1.1 µM and inactive = higher.
# GI50 values compiled below

The cases that follow already have their GI50 on record.
> print(dat)
                                   molecule              result
1  Nc1nc(Cl)cc(NCC2(CO)CC(c3ccccc3)C2)n1 (stereo unspecified)  20.5 µM (inactive)
2  CC1(c2ccc(Cl)cc2)c2ccccc2C(=O)N1CCCN1C(=O)c2ccccc2C1=O (stereo unspecified)  51.8 µM (inactive)
3  COC(=O)N1C=Cc2c(c(C)c3c([nH]c4ccccc43)c2C)C1C (stereo unspecified)  17.3 µM (inactive)

Q) Reported GI50 for UACC-257, given CC1=C(C(=O)NCc2ccccc2)C(c2ccc(Cl)c(Cl)c2)C(C(=O)NCc2ccccc2)=C(C)N1 ?
A) > 100 µM (inactive)

Q) Query for UACC-257: what GI50 does the record show for Cc1nc(N)nc2ccccc12 ?
A) > 100 µM (inactive)

Q) Param readout = GI50; param system = UACC-257; param query = COc1ccc(-n2c(-c3ccccc3)cc(-c3cccs3)c2-c2cccs2)cc1 ; response: value
A) > 100 µM (inactive)

====

test system: TK-10; test: NCI tumour cell line growth inhibition, 48 h
Active and inactive are the calls of the source. No stated cut-off is given here; in the data, active = GI50 up to about 1.1 µM and inactive = higher.
Item-by-item account of GI50

Observe how each entry below is paired with its result.
> print(dat)
                                   molecule               result
1  CN1c2ccccc2N(C(=O)c2ccc([N+](=O)[O-])cc2)C(CC(=O)O)c2cccn21 (stereo not given)  > 100 µM (inactive)
2              Nc1ccc(S(=O)(=O)Nc2nccs2)cc1  > 100 µM (inactive)
3  [N-]=[N+]=NC(CI)c1cn([C@H]2C[C@H](O)[C@@H](CO)O2)c(=O)[nH]c1=O (stereo not given in full)  > 100 µM (inactive)
4  CCN(c1n[n+]2c(-c3ccccc3)csc2s1)c1n[n+]2c(-c3ccccc3)csc2s1  > 100 µM (inactive)
5       COc1ccc2c(c1)C(N)=C(c1ccccc1OC)C2=O  > 100 µM (inactive)
6  NC(CCCCNCc1ccccc1)C(=O)O (stereo not given)  > 100 µM (inactive)

Q) Requested read-out GI50, target or system TK-10, entry C/C(=N\NC(=O)c1ccncc1)c1sc(-n2nc(-c3ccccc3)cc2-c2ccccc2)nc1C
A) > 31.6 µM (inactive)

Q) Record COC(=O)C1=C(C(=O)OC)SC2(S1)C(C(=O)OC)=C(C(=O)OC)Sc1c2ss/c1=N/C(C)(C)C : what is its GI50 with TK-10?
A) 1.64 µM (inactive)

Q) Test system TK-10; read-out GI50; what value for O=C1OC(=O)c2c1cc1cc3c(cc1c2-c1ccc2c(c1)OCO2)OCO3 ?
A) > 100 µM (inactive)

Q) # get_value(readout= GI50, system= TK-10) for Nc1ncnc2nn(C3OC(CO)C(O)C3O)nc12 (stereo not given)
A) 3.56 µM (inactive)

====

tested on: SNB-19; assay: NCI tumour cell line growth inhibition, 48 h
The source made the active and inactive calls. Rule as the data show it: active = GI50 up to about 1.1 µM and inactive = higher.
# valid calls are active, inactive; nothing else

compound	class-name
COc1nc(C(=O)NNC(=O)c2nc(OC)c3ccccc3c2-c2ccccc2)c(-c2ccccc2)c2ccccc12	inactive
COc1ccc(CC2C(=O)NC(C)C(=O)N(C)C3C(=O)N(C)C(Cc4ccc(O)c(c4)Oc4ccc(cc4)C3O)C(=O)NC(C)C(=O)NC(C)C(=O)N2C)cc1.COc1ccc(CC2C(=O)NC(C)C(=O)N(C)C3Cc4ccc(cc4)Oc4cc(ccc4O)CC(C(=O)NC(C)C(=O)NC(C)C(=O)N2C)N(C)C3=O)cc1 (stereo not drawn)	active

Q) How was CSCC[C@H]1C(=O)N=C(N)N1C(=O)OCc1ccccc1 classified in this test?
A) inactive

Origin of measurements: ChEMBL document CHEMBL1201862
